PROTOCOL_SUMMARY: Oral bioavailability in Sprague-Dawley rat at 5 mg/kg
Type: ADME, organism-based
MEASUREMENT_SETUP: in vivo
RECORDED_METRIC: bioavailability (%)

CSC1COCC1c1nc(C(=O)NCc2ccc(F)cc2)c(O)c(=O)n1C (racemic) :: 67
Cn1c(C2CCOC2)nc(C(=O)NCc2ccc(F)cc2N2CCCCS2(=O)=O)c(O)c1=O (racemic) :: 60
Cn1c(C2CCOC2)nc(C(=O)NCc2ccc(F)cc2)c(O)c1=O (racemic) :: 68

---

PROTOCOL_SUMMARY: Clearance in Sprague-Dawley rat at 1 mg/kg, iv
Type: ADME, organism-based
Parameters: dose 1 mg/kg, route intravenous
MEASUREMENT_SETUP: in vivo
RECORDED_METRIC: clearance (mL/min/kg)

Cn1c(C2CCOC2)nc(C(=O)NCc2ccc(F)cc2N2CCCCS2(=O)=O)c(O)c1=O (racemic) :: 6
COCCN1CCN(c2cc(F)ccc2CNC(=O)c2nc(C3CCOC3)n(C)c(=O)c2O)C1=O (racemic) :: 15
CSC1COCC1c1nc(C(=O)NCc2ccc(F)cc2)c(O)c(=O)n1C (racemic) :: 3.6
Cn1ncnc1-c1cc(F)ccc1CNC(=O)c1nc(C2CCOC2)n(C)c(=O)c1O (racemic) :: 12
Cn1c(C2CCOCC2)nc(C(=O)NCc2ccc(F)cc2)c(O)c1=O :: 2.6

A: Cc1ncnn1-c1cc(F)ccc1CNC(=O)c1nc(C2CCOC2)n(C)c(=O)c1O (racemic)
B: Cn1c(C2CCOCC2)nc(C(=O)NCc2ccc(F)cc2S(C)(=O)=O)c(O)c1=O
# input A or B : whose clearance is greater? Select an item and report its label.
# output A

a: Cn1c(C2CCOC2)nc(C(=O)NCc2ccc(F)cc2-n2cncn2)c(O)c1=O (racemic)
b: Cn1c(C2CCOC2)nc(C(=O)NCc2ccc(F)cc2)c(O)c1=O (racemic)
c: Cn1c(C2CCOC2)nc(C(=O)NCc2ccc(F)cc2N2CCN(C(C)(C)C)S2(=O)=O)c(O)c1=O (racemic)
# input Sort the 3 molecules by clearance; largest first, smallest last. Provide the ranking by listing each label in its place in the requested order.
# output a, c, b
(a: 47 mL/min/kg, c: 31 mL/min/kg, b: 4.9 mL/min/kg)

---

TARGET_DESC: Human immunodeficiency virus type 1 integrase (Human immunodeficiency virus 1, UniProt Q7ZJM1)
Sequence (Q7ZJM1 whole entry): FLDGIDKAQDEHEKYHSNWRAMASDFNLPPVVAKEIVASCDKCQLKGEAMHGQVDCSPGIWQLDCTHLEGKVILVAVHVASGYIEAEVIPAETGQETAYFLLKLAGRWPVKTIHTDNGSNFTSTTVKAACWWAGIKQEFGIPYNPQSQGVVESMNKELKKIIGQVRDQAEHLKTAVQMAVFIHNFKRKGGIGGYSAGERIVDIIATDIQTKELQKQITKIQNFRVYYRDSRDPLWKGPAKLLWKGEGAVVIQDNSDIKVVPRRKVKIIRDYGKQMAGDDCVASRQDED
RECORDED_METRIC: IC50 (nM)

Worked cases, IC50 given:
Cn1c(C2CCOC2)nc(C(=O)NCc2ccc(F)cc2N2CCCCS2(=O)=O)c(O)c1=O (racemic) :: 9
Cn1c(C2CCOCC2)nc(C(=O)NCc2ccc(F)cc2-n2cncn2)c(O)c1=O :: 6
Cn1ncnc1-c1cc(F)ccc1CNC(=O)c1nc(C2CCOC2)n(C)c(=O)c1O (racemic) :: 6
Cn1ncnc1-c1cc(F)ccc1CNC(=O)c1nc(C2CCOCC2)n(C)c(=O)c1O :: 9

a: Cn1c(-c2ccco2)nc(C(=O)NCc2ccc(F)cc2)c(O)c1=O
b: Cn1c(C2CCOC2)nc(C(=O)NCc2ccc(F)cc2S(C)(=O)=O)c(O)c1=O (racemic)
# input a or b : whose IC50 is greater? Select an item and report its label.
# output a
(a: 21 nM, b: 9 nM)

These data points were gathered from ChEMBL document CHEMBL3351431.
